# target_or_system: Mitogen-activated protein kinase kinase kinase 14 (Homo sapiens, UniProt Q99558)
# Sequence (Q99558 whole entry, the tested form may be a part): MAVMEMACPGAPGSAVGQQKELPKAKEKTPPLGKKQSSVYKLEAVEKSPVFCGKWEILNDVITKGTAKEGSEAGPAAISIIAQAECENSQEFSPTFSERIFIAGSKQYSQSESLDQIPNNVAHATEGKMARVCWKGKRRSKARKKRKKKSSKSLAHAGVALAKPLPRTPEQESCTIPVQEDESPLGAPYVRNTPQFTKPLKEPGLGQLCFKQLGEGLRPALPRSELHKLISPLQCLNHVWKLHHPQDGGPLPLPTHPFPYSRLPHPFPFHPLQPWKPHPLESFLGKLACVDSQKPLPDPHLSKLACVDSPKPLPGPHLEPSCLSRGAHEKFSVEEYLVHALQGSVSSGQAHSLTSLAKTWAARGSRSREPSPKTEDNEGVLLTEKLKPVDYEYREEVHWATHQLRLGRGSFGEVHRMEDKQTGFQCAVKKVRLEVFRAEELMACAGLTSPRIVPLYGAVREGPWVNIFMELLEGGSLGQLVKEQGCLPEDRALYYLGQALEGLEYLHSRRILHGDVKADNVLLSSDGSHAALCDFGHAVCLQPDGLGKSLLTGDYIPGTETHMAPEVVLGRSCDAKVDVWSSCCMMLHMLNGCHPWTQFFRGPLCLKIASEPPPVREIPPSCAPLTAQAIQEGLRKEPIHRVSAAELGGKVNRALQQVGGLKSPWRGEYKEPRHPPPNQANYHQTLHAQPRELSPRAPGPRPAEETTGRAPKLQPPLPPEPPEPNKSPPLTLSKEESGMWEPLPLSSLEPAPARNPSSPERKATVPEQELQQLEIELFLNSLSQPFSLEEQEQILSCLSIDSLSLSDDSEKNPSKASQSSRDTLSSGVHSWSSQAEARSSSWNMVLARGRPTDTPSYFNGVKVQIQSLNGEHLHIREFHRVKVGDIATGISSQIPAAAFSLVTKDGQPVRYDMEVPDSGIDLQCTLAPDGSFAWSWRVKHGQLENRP
# protocol_text: Binding affinity to biotinylated N-terminal 6His-tagged/TEV cleavage site-fused human NIK in presence of AMP-PNP by SPR analysis
parameter: pKd
As a rule, pKd stands for the negative log10 of the concentration, concentration in M.

| molecule | target_or_system | pKd |
| --- | --- | --- |
| OC1CCOc2cc(Cl)ccc21 (configuration not stated) | Mitogen-activated protein kinase kinase kinase 14 (Homo sapiens, UniProt Q99558) | 3.67 |
| CCC1(O)CCOc2cc(Cl)ccc21 (configuration not stated) | Mitogen-activated protein kinase kinase kinase 14 (Homo sapiens, UniProt Q99558) | 3.23 |

# input Identify the reported pKd for the following entry. Cc1cccc2c1C(O)CCO2 (configuration not stated)
# output 3.88

# input Identify the reported pKd for the following entry. COc1cc(Cl)cc(C)c1C(C)(O)C1CC1 (configuration not stated)
# output 3.84

# input Identify the reported pKd for the following entry. Cc1cc(Cl)cc2c1C(O)(c1ccccc1)CCO2 (configuration not stated)
# output 3.14

# input Identify the reported pKd for the following entry. OC1(C2CC2)CCOc2cc(Cl)ccc21 (configuration not stated)
# output 3.54

# input Identify the reported pKd for the following entry. OC1(c2ccccc2)CCOc2cc(Cl)ccc21 (configuration not stated)
# output 3.43
